Biological target: T1, recombinant mouse VISTA (His-tagged) (mouse, UniProt Q9D659 33-191)
T1 construct: also called murine VISTA; mVISTA
T1 sequence (looked up): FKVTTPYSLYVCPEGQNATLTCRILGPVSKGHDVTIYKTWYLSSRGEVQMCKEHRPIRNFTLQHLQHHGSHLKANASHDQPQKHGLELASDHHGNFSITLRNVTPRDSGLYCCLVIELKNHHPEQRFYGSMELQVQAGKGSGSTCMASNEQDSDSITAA
Experiment: BLI (Octet), 1:1 global fit, His-tagged mouse VISTA captured
As shown below, each of these binders has a reported kon value.

binder	kon [M⁻¹ s⁻¹]
anti-VISTA clone V4-C31 IgG1 (antibody, V domains shown) VH: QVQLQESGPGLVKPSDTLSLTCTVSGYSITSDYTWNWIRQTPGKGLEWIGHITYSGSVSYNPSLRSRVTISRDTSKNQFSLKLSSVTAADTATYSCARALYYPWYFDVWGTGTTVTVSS VL: EIVLTQSPATLSLSPGERATLSCRASSSVGYIHWYQQKPGQAPRPLIYATYYRTTGIPARFSGSGSGTDNTLTISSLEPEDSAVYYCQQWSSYPPITFGGGTKLEVKR	344000
anti-VISTA clone V4-C28 IgG1 (antibody, V domains shown) VH: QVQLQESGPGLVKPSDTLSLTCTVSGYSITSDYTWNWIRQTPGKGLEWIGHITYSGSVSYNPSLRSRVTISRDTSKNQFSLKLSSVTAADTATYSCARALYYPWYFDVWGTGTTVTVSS VL: EIVLTQSPATLSLSPGERATLSCRASSSVGYIHWYQQKPGQAPRPLIYATSYRATGIPARFSGSGSGTDNTLTISSLEPEDSAVYYCQQWSSYPPITFGGGTKLEVKR	520000
anti-VISTA clone V4-C30 IgG1 (antibody, V domains shown) VH: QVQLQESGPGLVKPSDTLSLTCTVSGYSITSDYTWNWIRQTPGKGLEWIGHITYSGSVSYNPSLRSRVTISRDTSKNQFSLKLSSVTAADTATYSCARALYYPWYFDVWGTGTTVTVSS VL: EIVLTQSPATLSLSPGERATLSCRASSSVGYIHWYQQKPGQAPRPLIYATYYRATGIPARFSGSGSGTDNTLTISSLEPEDSAVYYCQQWSSYPPITFGGGTKLEVKR	533000
anti-VISTA clone V4-C9 IgG1 (antibody, V domains shown) VH: QVQLQESGPGLVKPSDTLSLTCTVSGYSITSDYAWNWIRQTPGKGLEWIGYITYSGYVSYNPSLRSRVTISRDTSKNQFSLKLSSVTAADTAVYSCARALYYPWYFDVWGTGTTVTVSS VL: EIVLTQSPATLSLSPGERATLSCRASSSVGYIHWYQQKPGQAPRPLIYATSNRATGIPARFSGSGSGTDNTLTISSLEPEDSAVYYCQQWSSYPPITFGGGTKLEVKR	157000
anti-VISTA clone V4-C27 IgG1 (antibody, V domains shown) VH: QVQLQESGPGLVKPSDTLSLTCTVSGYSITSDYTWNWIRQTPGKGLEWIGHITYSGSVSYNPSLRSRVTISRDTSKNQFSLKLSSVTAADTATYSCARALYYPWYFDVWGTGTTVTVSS VL: EIVLTQSPATLSLSPGERATLSCRASSSVGYIHWYQQKPGQAPRPLIYATYNRATGIPARFSGSGSGTDNTLTISSLEPEDSAVYYCQQWSSYPPITFGGGTKLEVKR	398000
anti-VISTA clone V4-C24 IgG1 (antibody, V domains shown) VH: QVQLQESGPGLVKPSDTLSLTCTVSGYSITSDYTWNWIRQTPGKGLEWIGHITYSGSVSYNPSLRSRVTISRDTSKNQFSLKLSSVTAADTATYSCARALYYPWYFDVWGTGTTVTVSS VL: EIVLTQSPATLSLSPGERATLSCRASSSVGYIHWYQQKPGQAPRPLIYTTSYRATGIPARFSGSGSGTDNTLTISSLEPEDSAVYYCQQWSSYPPITFGGGTKLEVKR	462000
anti-VISTA clone V4-C1 IgG1 (antibody, V domains shown) VH: QVQLQESGPGLVKPSDTLSLTCTVSGYSITSDYAWNWIRQTPGKGLEWIGYITYSGYISYNPSLRSRVTISRDTSKNQFSLKLSSVTAADTAVYSCARALYYPWYFDVWGTGTTVTVSS VL: EIVITQSPATLSLSPGERATLSCRASSSVGYIHWYQQKPGQAPRPLIYATSNRATGIPARFSGSGSGTDNTLTISSLEPEDSAVYYCQQWSSYPPITFGGGTKLEVKR	330000
